# target entity: T1, recombinant human BCMA, in house material (human, UniProt Q02223 4-53, limits assumed)
# T1 construct: also called Human in house BCMA; In house human BCMA
# T1 sequence (Q02223 4-53 limits assumed): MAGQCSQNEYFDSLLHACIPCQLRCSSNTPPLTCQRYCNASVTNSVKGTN
# assay explanation: ProteOn SPR run 2, antibody captured on Protein A, 25C; Run 2 (Table 9)
pKd: −log10 of the molar value.
Item-by-item account of pKd
measured attribute: pKd

CA8 humanised J6M2 (antibody, human IgG1, kappa, V domains shown, Humanised CA8, heavy chain J6 with light chain M2, human IgG1 kappa; also called CA8 J6M2) VH: QVQLVQSGAEVKKPGSSVKVSCKASGGTFSNYWMHWVRQAPGQGLEWMGATYRGHSDTYYNQKFKGRVTITADKSTSTAYMELSSLRSEDTAVYYCARGAIYDGYDVLDNWGQGTLVTVSS VL: DIQLTQSPSSLSASVGDRVTITCSASQDISNYLNWYQQKPGKAPELVIYYTSNLHSGVPSRFSGSGSGTDYTLTISSLQPEDFATYYCQQYRKLPWTFGQGTKLEIKR | 9.69
CA8 humanised J6M1 (antibody, human IgG1, kappa, V domains shown, Humanised CA8, heavy chain J6 with light chain M1, human IgG1 kappa; also called CA8 J6M1) VH: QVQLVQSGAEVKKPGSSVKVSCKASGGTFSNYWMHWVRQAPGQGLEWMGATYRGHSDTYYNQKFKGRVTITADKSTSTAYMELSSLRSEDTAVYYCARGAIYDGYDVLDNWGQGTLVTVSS VL: DIQMTQSPSSLSASVGDRVTITCSASQDISNYLNWYQQKPGKAPKLLIYYTSNLHSGVPSRFSGSGSGTDYTLTISSLQPEDFATYYCQQYRKLPWTFGQGTKLEIKR | 9.91
S307118G03 Chimera (antibody, human IgG1, kappa, V domains shown, also called chimeric S307118G03) VH: EVQLQQSGPELVKPGASVKISCKASGYTFTDYYMKWVKQSHGKSLEWIGEIYPNNGGITYNQKFKGKATLTVDKSSSTAYMELRSLTSEDSAVYYCANGYEFVYWGQGTLVTVSA VL: DIQMTQTASSLSASLGDRVTISCSASQGISNYLNWYQQKPDGTVKLLIYYTSSLHSGVPSRFSGSGSGTDYSLTISNLEPEDIATYYCQQYSKLPWTFGGGTKLELKR | 8.46
